The entries below come with measured MFC values attached.
system: Candida albicans; assay: Antifungal activity against Candida albicans ATCC 10261 after 48 hrs by broth microdilution method; assay type: functional; conditions: ATCC 10261, 48 h
Starred links: 1 amine or outer side, 2 acyl side, 3 side chain; linkers in the order of their positions; H or OH if unused. Positions of bridges follow the written chain, without caps; N, C: chain ends. Non-standard residues stand in square brackets, D forms with d. Residues, ends and D or L forms follow the SMILES beside them. *: point of attachment. hTyr(3S-OH,4S-OH,3'-OSO3H) = N[C@H](C(=O)O)[C@H](O)[C@@H](O)c1ccc(O)c(OS(=O)(=O)O)c1; Orn(4R-OH,5R-OH) = O=C([C@H](C[C@@H](O)[C@@H](O)N[*:3])N[*:1])[*:2]; Pro(3S-OH,4S-Me) = C[C@H]1CN[C@H](C(=O)O)[C@H]1O; X1 = CCCCCOc1ccc(-c2cc(-c3ccc(C(=O)*)cc3)no2)cc1; Gln(3R-OH) = NC(=O)C[C@@H](O)[C@H](N)C(=O)O; Hyp = O=C(O)[C@@H]1C[C@@H](O)CN1
Quick note: give the figure in µg/mL, leave out the unit.

MOLECULE: CCCCCOc1ccc(-c2cc(-c3ccc(C(=O)N[C@H]4C[C@@H](O)[C@@H](O)NC(=O)[C@@H]5[C@@H](O)[C@@H](C)CN5C(=O)[C@H]([C@H](O)CC(N)=O)NC(=O)[C@H]([C@H](O)[C@@H](O)c5ccc(O)c(OS(=O)(=O)O)c5)NC(=O)[C@@H]5C[C@@H](O)CN5C(=O)[C@H]([C@@H](C)O)NC4=O)cc3)no2)cc1 [MICAFUNGIN] (X1-[Orn(4R-OH,5R-OH)]T[Hyp][hTyr(3S-OH,4S-OH,3'-OSO3H)][Gln(3R-OH)][Pro(3S-OH,4S-Me)]; lactam 1-C)
TARGET_DESC: Candida albicans
MFC / µg/mL: 0.25

We now examine a further molecule.
Give reported MFC value for C[C@@H]1[C@H](O)[C@@H](C)/C=C/C=C/C=C/C=C/C=C/C=C/C=C/[C@H](O[C@@H]2O[C@H](C)[C@@H](O)[C@H](N)[C@@H]2O)C[C@@H]2O[C@](O)(C[C@@H](O)C[C@@H](O)[C@H](O)CC[C@@H](O)C[C@@H](O)CC(=O)O[C@H]1C)C[C@H](O)[C@H]2C(=O)O 2

###

test system: Nakaseomyces glabratus; assay: Antifungal activity against Candida glabrata clinical isolates after 48 hrs by broth microdilution method; assay type: functional
Starred links: 1 amine or outer side, 2 acyl side, 3 side chain; linkers in the order of their positions; H or OH if unused. Positions of bridges follow the written chain, without caps; N, C: chain ends. Non-standard residues stand in square brackets, D forms with d. Residues, ends and D or L forms follow the SMILES beside them. *: point of attachment. hTyr(3S-OH,4S-OH,3'-OSO3H) = N[C@H](C(=O)O)[C@H](O)[C@@H](O)c1ccc(O)c(OS(=O)(=O)O)c1; Orn(4R-OH,5R-OH) = O=C([C@H](C[C@@H](O)[C@@H](O)N[*:3])N[*:1])[*:2]; Pro(3S-OH,4S-Me) = C[C@H]1CN[C@H](C(=O)O)[C@H]1O; X1 = CCCCCOc1ccc(-c2cc(-c3ccc(C(=O)*)cc3)no2)cc1; Gln(3R-OH) = NC(=O)C[C@@H](O)[C@H](N)C(=O)O; Hyp = O=C(O)[C@@H]1C[C@@H](O)CN1
PROPERTY_LABEL: MIC50 (µg/mL)
Quick note: give the figure in µg/mL, leave out the unit.

COMPOUND: C[C@@H]1[C@H](O)[C@@H](C)/C=C/C=C/C=C/C=C/C=C/C=C/C=C/[C@H](O[C@@H]2O[C@H](C)[C@@H](O)[C@H](N)[C@@H]2O)C[C@@H]2O[C@](O)(C[C@@H](O)C[C@@H](O)[C@H](O)CC[C@@H](O)C[C@@H](O)CC(=O)O[C@H]1C)C[C@H](O)[C@H]2C(=O)O [AMPHOTERICIN B]
MIC50 (µg/mL): 1
--
COMPOUND: N=C(N)c1ccc(OCCCC2CCN(CCCOc3ccc(C(=N)N)cc3)CC2)cc1
MIC50 (µg/mL): 0.0039
--
COMPOUND: C[C@@H](c1ncncc1F)[C@](O)(Cn1cncn1)c1ccc(F)cc1F [VORICONAZOLE]
MIC50 (µg/mL): 0.125

We now examine a further compound.
Give reported MIC50 value for CCCCCOc1ccc(-c2cc(-c3ccc(C(=O)N[C@H]4C[C@@H](O)[C@@H](O)NC(=O)[C@@H]5[C@@H](O)[C@@H](C)CN5C(=O)[C@H]([C@H](O)CC(N)=O)NC(=O)[C@H]([C@H](O)[C@@H](O)c5ccc(O)c(OS(=O)(=O)O)c5)NC(=O)[C@@H]5C[C@@H](O)CN5C(=O)[C@H]([C@@H](C)O)NC4=O)cc3)no2)cc1 [MICAFUNGIN] (X1-[Orn(4R-OH,5R-OH)]T[Hyp][hTyr(3S-OH,4S-OH,3'-OSO3H)][Gln(3R-OH)][Pro(3S-OH,4S-Me)]; lactam 1-C) 0.0625

###

tested on: Aspergillus fumigatus; test: Antifungal activity against Aspergillus fumigatus IFM 46895 after 48 hrs by broth microdilution method; format: functional; details: IFM 46895, 48 h
PROPERTY_LABEL: MFC (µg/mL)
Quick note: give the figure in µg/mL, leave out the unit.

RECORD_SMILES: C[C@@H](c1ncncc1F)[C@](O)(Cn1cncn1)c1ccc(F)cc1F
UNIT_LABEL: µg/mL
MFC: 4

Give reported MFC value for C[C@@H]1[C@H](O)[C@@H](C)/C=C/C=C/C=C/C=C/C=C/C=C/C=C/[C@H](O[C@@H]2O[C@H](C)[C@@H](O)[C@H](N)[C@@H]2O)C[C@@H]2O[C@](O)(C[C@@H](O)C[C@@H](O)[C@H](O)CC[C@@H](O)C[C@@H](O)CC(=O)O[C@H]1C)C[C@H](O)[C@H]2C(=O)O 2

###

The entries below come with measured MFC values attached.
test system: Meyerozyma guilliermondii; assay: Antifungal activity against Candida guilliermondii IFO 10279 after 48 hrs by broth microdilution method; format: functional; conditions: IFO 10279, 48 h
Starred links: 1 amine or outer side, 2 acyl side, 3 side chain; linkers in the order of their positions; H or OH if unused. Positions of bridges follow the written chain, without caps; N, C: chain ends. Non-standard residues stand in square brackets, D forms with d. Residues, ends and D or L forms follow the SMILES beside them. *: point of attachment. hTyr(3S-OH,4S-OH,3'-OSO3H) = N[C@H](C(=O)O)[C@H](O)[C@@H](O)c1ccc(O)c(OS(=O)(=O)O)c1; Orn(4R-OH,5R-OH) = O=C([C@H](C[C@@H](O)[C@@H](O)N[*:3])N[*:1])[*:2]; Pro(3S-OH,4S-Me) = C[C@H]1CN[C@H](C(=O)O)[C@H]1O; X1 = CCCCCOc1ccc(-c2cc(-c3ccc(C(=O)*)cc3)no2)cc1; Gln(3R-OH) = NC(=O)C[C@@H](O)[C@H](N)C(=O)O; Hyp = O=C(O)[C@@H]1C[C@@H](O)CN1
Quick note: give the figure in µg/mL, leave out the unit.

Would you please look over these solved cases?
COMPOUND: C[C@@H](c1ncncc1F)[C@](O)(Cn1cncn1)c1ccc(F)cc1F
MFC, µg/mL: 0.5
//
COMPOUND: C[C@@H]1[C@H](O)[C@@H](C)/C=C/C=C/C=C/C=C/C=C/C=C/C=C/[C@H](O[C@@H]2O[C@H](C)[C@@H](O)[C@H](N)[C@@H]2O)C[C@@H]2O[C@](O)(C[C@@H](O)C[C@@H](O)[C@H](O)CC[C@@H](O)C[C@@H](O)CC(=O)O[C@H]1C)C[C@H](O)[C@H]2C(=O)O
MFC, µg/mL: 1
//
COMPOUND: N=C(N)c1ccc(OCCCC2CCN(CCCOc3ccc(C(=N)N)cc3)CC2)cc1
MFC, µg/mL: 0.0078

We now examine a further compound.
Give reported MFC value for CCCCCOc1ccc(-c2cc(-c3ccc(C(=O)N[C@H]4C[C@@H](O)[C@@H](O)NC(=O)[C@@H]5[C@@H](O)[C@@H](C)CN5C(=O)[C@H]([C@H](O)CC(N)=O)NC(=O)[C@H]([C@H](O)[C@@H](O)c5ccc(O)c(OS(=O)(=O)O)c5)NC(=O)[C@@H]5C[C@@H](O)CN5C(=O)[C@H]([C@@H](C)O)NC4=O)cc3)no2)cc1 [MICAFUNGIN] (X1-[Orn(4R-OH,5R-OH)]T[Hyp][hTyr(3S-OH,4S-OH,3'-OSO3H)][Gln(3R-OH)][Pro(3S-OH,4S-Me)]; lactam 1-C) 8
